Listed below: IC50 values for each entry.
Tested on: Human immunodeficiency virus 1
EXPERIMENTAL_PROTOCOL: Antiviral activity against wild type HIV1 infected in human MT4 cells assessed as reduction of virus-induced cytopathic effect by replication assay in presence of 10% FBS
Assay type: functional, organism-based
MEASUREMENT_CONTEXT: Human immunodeficiency virus 1, MT4
RECORDED_METRIC: IC50 (nM)

[[record]]
smiles_structure = "Cc1cc(C#N)cc(Cl)c1Nc1nc(NC2CCN(c3cccc(C(N)=O)c3)CC2)ncc1Br"
unit_of_measurement = "nM"
recorded_measurement = 1.2

[[record]]
smiles_structure = "Cc1cc(C#N)cc(C)c1Oc1nc(NC2CCN(Cc3ccc(S(N)(=O)=O)cc3Cl)CC2)ncc1Br"
unit_of_measurement = "nM"
recorded_measurement = 6.1

[[record]]
smiles_structure = "Cc1cnc(NC2CCN(c3cccc(C(N)=O)c3)CC2)nc1Oc1c(C)cc(C#N)cc1Cl"
unit_of_measurement = "nM"
recorded_measurement = 1.6

[[record]]
smiles_structure = "Cc1cc(C#N)cc(F)c1Oc1nc(NC2CCN(c3cccc(C(N)=O)c3)CC2)ncc1Br"
unit_of_measurement = "nM"
recorded_measurement = 7.3

[[record]]
smiles_structure = "Cc1cnc(NC2CCN(c3cccc(C(N)=O)c3)CC2)nc1Oc1c(C)cc(C#N)cc1C"
unit_of_measurement = "nM"
recorded_measurement = 1.1

[[record]]
smiles_structure = "Cc1cc(C#N)cc(Cl)c1Oc1ccnc(NC2CCN(c3cccc(C(N)=O)c3)CC2)n1"
unit_of_measurement = "nM"
recorded_measurement = 0.4

[[record]]
smiles_structure = "Cc1cc(C#N)cc(C)c1Nc1nc(NC2CCN(c3cccc(C(N)=O)c3)CC2)ncc1Br"
unit_of_measurement = "nM"
recorded_measurement = 1.5

[[record]]
smiles_structure = "Cc1cc(C#N)cc(C)c1Nc1ccnc(NC2CCN(c3cccc(C(N)=O)c3)CC2)n1"
unit_of_measurement = "nM"
recorded_measurement = 0.5

